The origin of these recorded values is patent US8450354B2.

- ASSAYED TARGET: BACE-1 enzyme (Homo sapiens, UniProt P56817)
- Construct: purchased R & D Systems 931AS
- Sequence (P56817 46-457 limits assumed): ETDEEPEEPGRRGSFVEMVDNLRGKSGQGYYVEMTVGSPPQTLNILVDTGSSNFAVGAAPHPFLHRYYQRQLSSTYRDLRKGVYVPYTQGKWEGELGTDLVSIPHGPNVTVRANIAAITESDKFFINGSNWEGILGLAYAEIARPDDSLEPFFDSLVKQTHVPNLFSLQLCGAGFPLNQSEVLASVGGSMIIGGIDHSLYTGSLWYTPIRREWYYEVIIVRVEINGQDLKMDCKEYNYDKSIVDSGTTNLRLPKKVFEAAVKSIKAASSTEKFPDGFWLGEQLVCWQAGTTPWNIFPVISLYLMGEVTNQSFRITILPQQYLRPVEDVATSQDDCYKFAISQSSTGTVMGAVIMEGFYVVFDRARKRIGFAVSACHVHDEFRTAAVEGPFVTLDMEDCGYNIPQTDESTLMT
- ASSAY TEXT: BACE Fluorescence Resonance Energy Transfer (FRET) Assay
- Type: biochemical
- CONDITION: pH 4-4.5, 30 min pre-incubation, about 1.5 hours reaction, asterisk = mean
VALUE TYPE: IC50 (µM)

{"columns": ["MOLECULE", "VALUE TYPE", "RECORDED MEASUREMENT"],
 "data": [
  ["CCOCCOc1ccc2nc(C(=O)Nc3nc4cc(-c5cccc(C(F)(F)F)c5)ccc4[nH]3)cn2n1 [Example 22]", "IC50", 0.249],
  ["O=C(Nc1nc2cc(-c3cc(F)cc(Cl)c3)ccc2[nH]1)c1cn2nc(OCCCO)ccc2n1 [Example 113]", "IC50", 0.528],
  ["O=C(Nc1nc2cc(-c3cc(F)cc(Cl)c3)ccc2[nH]1)c1cn2nc(OCCCCO)ccc2n1 [Example 130]", "IC50", 0.169],
  ["CN(C)CCN(C)CCOc1ccc2nc(C(=O)Nc3nc4cc(-c5cccc(C(F)(F)F)c5)ccc4[nH]3)cn2n1 [Example 43]", "IC50", 0.335]
]}
